# Test system: CASOB (Sicklepod)
# measurement.notes: Preemergence herbicidal evaluation
# Type: in vivo, Cassia obtusifolia
# protocol.conditions: 0.0625 kg/ha, rated 4-5 weeks after treatment
measured.endpoint: Preemergence herbicidal rating CASOB

## Input Could you tell me which Preemergence herbicidal rating CASOB is on file for CCOC(=O)CN1C(=O)C(CC(=O)O)SC1=Nc1cc(N2C(=O)CC(C(F)(F)F)CC2=O)c(F)cc1Cl (stereo not shown) ?
## Output 0.0

## Input Could you tell me which Preemergence herbicidal rating CASOB is on file for "COCCCN1C(=O)CSC1=Nc1cc(-n2c(=O)cc(C(F)(F)F)n(C)c2=O)c(F)cc1Cl" ?
## Output 7.0

## Input Could you tell me which Preemergence herbicidal rating CASOB is on file for CCOC(=O)CN1C(=O)C(OC)SC1=Nc1cc(-n2c(=O)cc(C(F)(F)F)n(C)c2=O)c(F)cc1Cl (stereo not shown) ?
## Output 2.0

## Input Could you tell me which Preemergence herbicidal rating CASOB is on file for CCOC(=O)CN1C(=O)C(C(=O)OC(C)(C)C)SC1=Nc1cc(-n2c(=O)cc(C(F)(F)F)n(C)c2=O)c(F)cc1Cl (stereo not shown) ?
## Output 1.0

###

# System: CHEAL (Lambsquarters, Common)
# measurement.notes: Postemergence herbicidal evaluation
# Assay type: in vivo, Chenopodium album
# protocol.conditions: postemergence, rate 0.0630 kg/ha
For each entry below, report its CHEAL herbicidal rating value.
Format: numeric value only, no unit, no commentary.

## Input So what CHEAL herbicidal rating did CCOC(=O)CN1C(=O)C(Cc2ccccc2)SC1=Nc1cc(-n2c(=O)cc(C(F)(F)F)n(C)c2=O)c(F)cc1Cl (stereo not shown) get with CHEAL (Lambsquarters, Common)?
## Output 9.0

## Input So what CHEAL herbicidal rating did "CCOC(=O)[C@H](Cc1ccccc1)N1C(=O)CSC1=Nc1cc(-n2c(=O)cc(C(F)(F)F)n(C)c2=O)c(F)cc1Cl" get with CHEAL (Lambsquarters, Common)?
## Output 9.0

## Input So what CHEAL herbicidal rating did CN1C(=O)C(CC(=O)Nc2ccccc2)SC1=Nc1cc(-n2c(=O)cc(C(F)(F)F)n(C)c2=O)c(F)cc1Cl (stereo not shown) get with CHEAL (Lambsquarters, Common)?
## Output 3.0

## Input So what CHEAL herbicidal rating did "CCOC(=O)CN1C(=O)C(=Cc2ccccc2)SC1=Nc1cc(-n2c(=O)cc(C(F)(F)F)n(C)c2=O)c(F)cc1Cl" get with CHEAL (Lambsquarters, Common)?
## Output 9.0

## Input So what CHEAL herbicidal rating did C#CCOC(=O)CC1SC(=Nc2cc(-n3c(=O)cc(C(F)(F)F)n(C)c3=O)c(F)cc2Cl)N(CC=C)C1=O (stereo not shown) get with CHEAL (Lambsquarters, Common)?
## Output 9.0

## Input So what CHEAL herbicidal rating did C#CCOC(=O)CC1SC(=Nc2cc(-n3c(=O)cc(C(F)(F)F)n(C)c3=O)c(F)cc2Cl)N(C)C1=O (stereo not shown) get with CHEAL (Lambsquarters, Common)?
## Output 9.0

## Input So what CHEAL herbicidal rating did "C[C@@H](C(=O)OC(C)(C)C)N1C(=O)CSC1=Nc1cc(-n2c(=O)cc(C(F)(F)F)n(C)c2=O)c(F)cc1Cl" get with CHEAL (Lambsquarters, Common)?
## Output 7.0

Ref: patent US20020137929A1
